# Target Of Assay: T1, human-CD40-monomer protein (human, UniProt P25942 21-193, limits assumed)
# T1 construct: Soluble monomer generated in house, used as SPR analyte; also called hCD40; hCD40-monomer
# T1 sequence (P25942 21-193 limits assumed): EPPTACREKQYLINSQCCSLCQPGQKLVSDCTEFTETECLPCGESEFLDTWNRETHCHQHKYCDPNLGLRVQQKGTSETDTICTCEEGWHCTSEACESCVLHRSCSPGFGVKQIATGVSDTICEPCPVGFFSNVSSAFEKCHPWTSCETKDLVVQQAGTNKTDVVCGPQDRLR
# Protocol Text: SPR, Ab captured on protein A, hCD40 monomer 500 and 50 nM, 1:1 fit; supernatant
# Description: Titer analysis was performed using Biolayer Interferometry (BLI) on an Octet RED instrument (Fortebio) by capturing antibodies from supernatant using protein A sensor tips and measuring capture response with respect to a standard curve obtained using a control antibody sample. SPR data were obtained by capturing antibodies on a protein A surface and testing the binding of 500 nM and 50 nM injections of human-CD40 analyte, using a BIAcore™ T200 instrument (GE Healthcare). […]
Note to self: kon under 200000 M⁻¹ s⁻¹ means MET, ties and anything higher get NOT MET.

Binder: Y12XX-hz25 (antibody, human IgG1, kappa, V domains shown, Humanized, IgG1-P238K; supernatant sample) VH: QVQLVQSGAEVKKPGSSVKVSCKASGYAFTSYWMHWVRQRPGQGLEWIGQINPSNGRSQYNEKFKTRVTITADKSTSTAYMELSSLRSEDTAVYYCARWGLQPFAYWGQGTLVTVSS VL: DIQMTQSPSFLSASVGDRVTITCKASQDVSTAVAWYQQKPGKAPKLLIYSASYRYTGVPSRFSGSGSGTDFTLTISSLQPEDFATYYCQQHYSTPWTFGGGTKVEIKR
Assigned Class: MET
//
Binder: Y12XX-hz18 (antibody, human IgG1, kappa, V domains shown, Humanized, IgG1-P238K; supernatant sample) VH: QVQLVQSGAEVKKPGSSVKVSCKASGYAFTSYWMHWVRQAPGQGLEWMGYINPTTGYSAYNQKFKDKATLTADKSTSTAYMELSSLRSEDTAVYYCARWDPRPFAYWGQGTLVTVSS VL: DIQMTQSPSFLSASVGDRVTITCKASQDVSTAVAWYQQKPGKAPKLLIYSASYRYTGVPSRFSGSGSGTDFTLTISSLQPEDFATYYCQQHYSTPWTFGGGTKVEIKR
Assigned Class: NOT MET
//
Binder: Y12XX-hz41 (antibody, human IgG1, kappa, V domains shown, Humanized, IgG1-P238K; supernatant sample) VH: QVQLVQSGAEVKKPGSSVKVSCKASGYAFTSYWMHWVRQAPGQGLEWMGQINPSNARSQYNEKFKTRVTITADKSTSTAYMELSSLRSEDTAVYYCARWGLQPFAYWGQGTLVTVSS VL: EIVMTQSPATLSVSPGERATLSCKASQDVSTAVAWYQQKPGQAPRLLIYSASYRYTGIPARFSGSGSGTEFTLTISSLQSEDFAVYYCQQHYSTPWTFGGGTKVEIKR
Assigned Class: NOT MET
//
Binder: Y12XX-hz13 (antibody, human IgG1, kappa, V domains shown, Humanized, IgG1-P238K; supernatant sample) VH: QVQLVQSGAEVKKPGSSVKVSCKASGYAFTSYWMHWVRQAPGQGLEWMGQINPSNARSQYNEKFKTRVTITADKSTSTAYMELSSLRSEDTAVYYCARWGLQPFAYWGQGTLVTVSS VL: DIQMTQSPSSLSASVGDRVTITCKASQDVSTAVAWYQQKPGKAPKLLIYSASYRYTGVPSRFSGSGSGTDFTFTISSLQPEDIATYYCQQHYSTPWTFGGGTKVEIKR
Assigned Class: NOT MET
